- ASSAY_OVERVIEW: Clearance in rat
- Type: ADME, organism-based
- TEST_PARAMETERS: in vivo
QUANTITY_MEASURED: clearance (mL/min/kg)

CN(Cc1ccc(F)cc1)C(=O)[C@@]1(c2ccc(Cl)c(Cl)c2)C[C@H]1CN1CCN(S(=O)(=O)N(C)C)CC1	108

====

- ASSAY_OVERVIEW: Ratio of drug level in brain to plasma in sc dosed gerbils after 90 mins
- Type: ADME, organism-based
- TEST_PARAMETERS: gerbillinae, read-out: BPR
QUANTITY_MEASURED: Kp at 1.5 h

CN(Cc1ccc(F)cc1)C(=O)[C@@]1(c2ccc(Cl)c(Cl)c2)C[C@H]1CN1CCN(S(=O)(=O)N(C)C)CC1	1.9

Origin of the recorded values: ChEMBL document CHEMBL1681655
